Origin of the recorded values: patent US20100041068A1

Subject of test: peptide P5
Test summary: Apparent KD of lead quencher/peptide pair, Rose Bengal with peptide P5
Type: binding
Condition context: Rose Bengal with unphosphorylated peptide P5
Reported property: Kd (nM)
Answer in nM, number only, no unit symbol.

QUERY: Can you look up the measured Kd of O=C(O)c1c(Cl)c(Cl)c(Cl)c(Cl)c1-c1c2cc(I)c(=O)c(I)c-2oc2c(I)c(O)c(I)cc12 [Peptide D43, Rose Bengal] for me?
RESULT: 400

====

Subject of test: phosphorylated P5 peptide AcDap(Pyr)RTGRRFS(PO3^2−)YP-amide
Test summary: Apparent KD of Rose Bengal with phosphorylated P5 peptide
Reported property: Kd
Note: a bare number is incomplete; add the unit.

QUERY: State the recorded Kd for this entry: O=C(O)c1c(Cl)c(Cl)c(Cl)c(Cl)c1-c1c2cc(I)c(=O)c(I)c-2oc2c(I)c(O)c(I)cc12 [Peptide D43, Rose Bengal]
RESULT: 210 nM
